Target: T1, mouse LAG-3 protein with hFc tag (mLAG-3-hFc protein) (mouse; human, UniProt Q61790 24-442)
T1 construct: Made in HEK293 cells; also called mouse LAG-3 extracellular domain protein; not shown: human IgG Fc fragment (hFc) of the pCpC vector
T1 sequence: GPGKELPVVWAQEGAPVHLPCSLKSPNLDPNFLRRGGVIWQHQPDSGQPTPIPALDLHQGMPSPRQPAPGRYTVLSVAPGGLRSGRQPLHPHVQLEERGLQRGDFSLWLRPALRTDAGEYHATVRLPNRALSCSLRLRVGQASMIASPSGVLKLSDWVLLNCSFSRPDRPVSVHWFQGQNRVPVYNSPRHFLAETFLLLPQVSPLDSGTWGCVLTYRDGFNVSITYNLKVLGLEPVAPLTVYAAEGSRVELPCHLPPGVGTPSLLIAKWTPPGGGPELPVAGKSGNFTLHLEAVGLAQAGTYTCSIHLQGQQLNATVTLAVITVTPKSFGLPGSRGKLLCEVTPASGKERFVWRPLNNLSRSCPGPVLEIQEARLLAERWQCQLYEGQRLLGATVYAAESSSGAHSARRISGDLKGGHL
Experiment: ELISA, mLAG-3-hFc coated; 0.0001 nM
READOUT_LABEL: OD450 (OD450)
Use OD450 as the unit, but write only the number.

Reported OD450 for 405B8H3 (LAG-3 mouse-human chimeric antibody) (antibody, V domains shown, also called mouse-human chimeric antibody 405B8H3) VH: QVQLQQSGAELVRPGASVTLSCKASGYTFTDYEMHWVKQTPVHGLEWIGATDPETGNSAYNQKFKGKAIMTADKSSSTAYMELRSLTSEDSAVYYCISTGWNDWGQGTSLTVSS VL: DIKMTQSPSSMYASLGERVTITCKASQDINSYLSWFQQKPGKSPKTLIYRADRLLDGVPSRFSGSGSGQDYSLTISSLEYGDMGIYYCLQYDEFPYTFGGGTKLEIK : what is it?
0.08

For the binder 556F6B8 (LAG-3 mouse-human chimeric antibody) (antibody, V domains shown, also called 556F8B8) VH: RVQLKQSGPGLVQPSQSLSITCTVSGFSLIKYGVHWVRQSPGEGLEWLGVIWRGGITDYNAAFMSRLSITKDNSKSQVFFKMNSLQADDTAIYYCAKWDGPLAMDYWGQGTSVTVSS VL: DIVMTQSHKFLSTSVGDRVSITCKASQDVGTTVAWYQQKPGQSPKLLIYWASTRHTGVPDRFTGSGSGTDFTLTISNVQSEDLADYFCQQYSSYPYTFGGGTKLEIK , what OD450 is on record?
0.14

Quick one: OD450 for 409B11E12 (LAG-3 mouse-human chimeric antibody) (antibody, V domains shown) VH: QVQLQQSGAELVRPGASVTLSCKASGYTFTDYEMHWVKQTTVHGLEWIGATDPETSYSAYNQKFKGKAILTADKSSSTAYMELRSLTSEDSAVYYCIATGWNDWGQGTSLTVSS VL: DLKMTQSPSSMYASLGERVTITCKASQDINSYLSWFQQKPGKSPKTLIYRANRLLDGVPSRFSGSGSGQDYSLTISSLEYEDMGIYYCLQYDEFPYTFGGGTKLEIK ?
0.09

// query OD450 value for entry 409D4E10 (LAG-3 mouse-human chimeric antibody) (antibody, V domains shown) VH: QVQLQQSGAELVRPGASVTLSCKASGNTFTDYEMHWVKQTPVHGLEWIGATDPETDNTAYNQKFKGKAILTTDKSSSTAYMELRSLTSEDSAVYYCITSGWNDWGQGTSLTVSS VL: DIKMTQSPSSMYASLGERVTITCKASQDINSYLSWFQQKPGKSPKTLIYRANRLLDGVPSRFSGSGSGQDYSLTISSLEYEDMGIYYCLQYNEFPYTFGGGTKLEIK
0.1

Here is another binder to look at.
What does the record list as OD450 for 105F1E10 (LAG-3 mouse-human chimeric antibody) (antibody, V domains shown) VH: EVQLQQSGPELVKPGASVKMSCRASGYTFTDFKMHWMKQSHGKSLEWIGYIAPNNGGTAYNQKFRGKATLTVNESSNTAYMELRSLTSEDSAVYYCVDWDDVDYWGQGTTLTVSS VL: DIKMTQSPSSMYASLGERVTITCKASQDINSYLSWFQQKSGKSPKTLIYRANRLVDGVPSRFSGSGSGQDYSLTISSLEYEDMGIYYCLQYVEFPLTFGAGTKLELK ?
0.09
